# tested.on: Disintegrin and metalloproteinase domain-containing protein 17 (Homo sapiens) (UniProt P78536)
# Sequence (P78536 215-824 limits assumed): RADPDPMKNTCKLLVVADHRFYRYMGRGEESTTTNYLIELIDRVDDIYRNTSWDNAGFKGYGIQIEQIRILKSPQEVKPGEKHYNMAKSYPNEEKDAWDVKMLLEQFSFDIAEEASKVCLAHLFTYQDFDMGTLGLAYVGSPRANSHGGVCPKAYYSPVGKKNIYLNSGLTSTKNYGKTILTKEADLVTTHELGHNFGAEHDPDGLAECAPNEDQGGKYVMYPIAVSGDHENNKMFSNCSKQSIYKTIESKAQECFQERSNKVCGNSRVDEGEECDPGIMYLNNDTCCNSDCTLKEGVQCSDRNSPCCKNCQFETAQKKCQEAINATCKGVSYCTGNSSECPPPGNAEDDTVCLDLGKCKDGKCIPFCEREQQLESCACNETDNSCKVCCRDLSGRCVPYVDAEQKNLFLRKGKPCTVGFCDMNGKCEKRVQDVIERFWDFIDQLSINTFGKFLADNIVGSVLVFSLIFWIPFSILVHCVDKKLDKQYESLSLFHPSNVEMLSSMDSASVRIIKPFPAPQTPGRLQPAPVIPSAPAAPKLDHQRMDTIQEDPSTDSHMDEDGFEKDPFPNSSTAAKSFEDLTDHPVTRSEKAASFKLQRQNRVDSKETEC
# assay.name: ADAM17 inhibitors, hit retest, confirmation, biochemical, QFRET peptide cleavage (AID 743257);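 also: 0% = DMSO wells and 100% = marimastat wells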
# test.parameters: recombinant ADAM17, EDANS/DABCYL QFRET peptide cleavage; at 6.95 µM; stronger effect = higher value
The campaign covered roughly 2,900 compounds. About 1,900 (66%) were called active. So high a share suggests a set chosen from earlier hits. Not all results are given here.
measured.attribute: inhibition (%)
Answer with a number only, understood to be in %.

Give the reported inhibition for this molecule. O=C(Cc1ncc(C(F)(F)F)cc1Cl)Nc1cccc(Br)c1
5.32

Give the reported inhibition for this molecule. Cc1cc(C)cc(NS(=O)(=O)c2ccc(Oc3ncc(C(F)(F)F)cc3Cl)cc2)c1
20.1

Give the reported inhibition for this molecule. COc1cccc(NC(=O)C2C(c3ccccc3)C2(Cl)Cl)c1 (configuration not stated)
19.5

Give the reported inhibition for this molecule. S=C(NCc1ccc(Cl)cc1)NC12CC3CC(CC(C3)C1)C2
11.1

Give the reported inhibition for this molecule. O=C(COC(=O)CCCSc1nc2ccccc2[nH]1)Nc1ccc(Oc2ccccc2)cc1
21.9

Give the reported inhibition for this molecule. O=C(Nc1ccc(C(=O)NCc2ccccc2Cl)cc1)C1=CSCCO1
4.43

Give the reported inhibition for this molecule. COc1ccc(CC(=O)c2ccc(O)cc2O)cc1OC
1.45

----------
# tested.on: Disintegrin and metalloproteinase domain-containing protein 17 (Homo sapiens) (UniProt P78536)
# assay.name: ADAM17 inhibitors, hit retest, confirmation, biochemical, QFRET peptide cleavage (AID 743257);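 also: 0% = DMSO wells and 100% = marimastat wells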
# test.parameters: recombinant ADAM17, EDANS/DABCYL QFRET peptide cleavage; at 6.95 µM; stronger effect = higher value
Screen size: about 2,900 compounds; about 1,900 (66%) were called active. So high a share suggests a set chosen from earlier hits. Only a sample is shown.
measured.attribute: inhibition

Give the reported inhibition for this molecule. C=CCC[C@@H](Cc1ccc(F)cc1)C(=O)OC[C@H](Cc1c[nH]c2ccccc12)NC(=O)[C@@H](CC=C)CC(=O)N(CCO)Cc1ccccc1
16.9% (active)

Give the reported inhibition for this molecule. COc1ccc(S(=O)(=O)N2CCN(C(C)C(=O)Nc3ccc(C(C)C)cc3)CC2)cc1 (centres undefined)
10.8% (active)

Give the reported inhibition for this molecule. COC(=O)c1c(C)[nH]c(C(=O)/C=C/c2ccc(Cl)cc2)c1C
-5.64% (inactive)

Give the reported inhibition for this molecule. Cc1ccc(S(=O)(=O)N2CCN(C(=O)COC(=O)c3c(C)cc(C)cc3C)CC2)c(C)c1
9.17% (active)

Give the reported inhibition for this molecule. CCOC(=O)c1c(Cc2ccc(Cl)cc2)c[nH]c1C
9.85% (active)

Give the reported inhibition for this molecule. CCn1c(Cc2cccs2)nnc1SCC(=O)c1ccc(C)cc1
2.25% (inactive)

Give the reported inhibition for this molecule. C=CCC[C@@H](Cc1ccc(F)cc1)C(=O)O[C@H](CNC(=O)[C@H](CC=C)CC(=O)N(CCO)Cc1ccccc1)c1ccccc1
21.7% (active)

Give the reported inhibition for this molecule. C=CC[C@H](CC(=O)N(CCO)Cc1ccccc1)C(=O)N[C@@H](COC(=O)[C@@H](CC=C)Cc1ccc(F)cc1)Cc1ccccc1
14.8% (active)

Give the reported inhibition for this molecule. COc1cc(/C=N/n2c(C)n[nH]c2=S)ccc1OCc1ccccc1
0.43% (inactive)

----------
# tested.on: Disintegrin and metalloproteinase domain-containing protein 17 (Homo sapiens) (UniProt P78536)
# assay.name: ADAM17 inhibitors, hit retest, confirmation, biochemical, QFRET peptide cleavage (AID 743257);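 also: 0% = DMSO wells and 100% = marimastat wells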
# test.parameters: recombinant ADAM17, EDANS/DABCYL QFRET peptide cleavage; at 6.95 µM; stronger effect = higher value
In all, about 2,900 compounds went through this assay and about 1,900 (66%) were called active. The set was probably picked from earlier hits. These entries were drawn from the full list.
Label T when inhibition is at or above 10%; anything below gets F.

Decide: inhibition of O=C(CSc1nnc(Nc2ccccc2)s1)Nc1cccnc1Cl >= 10%?
F

Decide: inhibition of CCOc1ccc(-n2c(SCC(=O)Nc3cc(C)c(NC(=O)c4ccccc4)cc3OC)nnc2-c2cccs2)cc1 >= 10%?
T

Decide: inhibition of Cc1ccccc1C(=O)Nc1ccccc1Sc1ccccc1 >= 10%?
F

Decide: inhibition of CC[C@@]12C(=O)N(c3ccccc3)C(=O)N1[C@H](c1ccc(Br)cc1)[C@@H]1C(=O)N(C(C)(C)C)C(=O)[C@@H]12 >= 10%?
F

Decide: inhibition of NNC(=O)C1CCCn2c1nc1sc3c(c1c2=O)CCCC3 (stereo not given) >= 10%?
F

Decide: inhibition of COc1ccc(S(=O)(=O)Nc2ccc(O)c(Sc3nc4ccccc4s3)c2)cc1 >= 10%?
T

Decide: inhibition of CC(=O)Nc1ccc(S(=O)(=O)N2CCN(CCCOc3cc(C)ccc3C)CC2)cc1 >= 10%?
F

Decide: inhibition of O=C(CSc1nc(Nc2ccccc2)nc(N2CCOCC2)n1)Nc1cc(Cl)ccc1O >= 10%?
T

Decide: inhibition of CCOc1ccc(Nc2nc(Cc3nnc(SCC(=O)c4ccc(C)cc4)o3)cs2)cc1 >= 10%?
F

Decide: inhibition of CS(=O)(=O)Nc1cccc(C2=NN(S(=O)(=O)c3ccccc3)C(c3cccs3)C2)c1 (stereo not given) >= 10%?
F

Decide: inhibition of COc1ccc(C(N)c2csc(NC(=O)Nc3cccc(C(F)(F)F)c3)n2)cc1 (stereo not given) >= 10%?
F

Decide: inhibition of COc1ccc(Cl)cc1NC(=O)COC(=O)C(CC(C)C)N1C(=O)C2CC=CCC2C1=O (stereo not given) >= 10%?
F

Decide: inhibition of O=C1/C(=C\c2ccsc2)NC(=S)N1c1ccccc1 >= 10%?
F

Decide: inhibition of COc1ccc(S(=O)(=O)N2CCCCC2)cc1Br >= 10%?
T

Decide: inhibition of C=CCOc1ccccc1/C=N/NC(=O)Cc1ccccc1 >= 10%?
F

Decide: inhibition of NS(=O)(=O)c1ccc(NC(=O)COC(=O)C2(c3ccc(F)cc3)CCCC2)cc1 >= 10%?
T

Decide: inhibition of CCOC(=O)c1cccc(NC(=O)CN(C)S(=O)(=O)c2ccc(-c3cocn3)s2)c1 >= 10%?
F

Decide: inhibition of CN(C)c1ccc(NC(=O)NC2CCCCN(Cc3ccc(Cl)cc3)C2=O)cc1 (stereo not given) >= 10%?
F

Decide: inhibition of CCOc1ccc(N2C(=O)CC(N(CCc3ccc(OC)c(OC)c3)C(=S)Nc3ccccc3)C2=O)cc1 (stereo not given) >= 10%?
F

Decide: inhibition of O=C(CC1SC(=Nc2ccccc2)N(Cc2ccccn2)C1=O)Nc1cccc(Cl)c1 (stereo not given) >= 10%?
T

Decide: inhibition of Cc1ccc(C)c(NC(=S)NNC(=S)Nc2ccc(C(C)C)cc2)c1 >= 10%?
T

Decide: inhibition of CCCCCC(=O)N1C[C@H](O)[C@@H](n2cc(COC(=O)c3ccccc3)nn2)C[C@@H]1c1ccc(C)cc1 >= 10%?
T

Decide: inhibition of CC(C)(C)N1C(=O)[C@H]2[C@@H](c3ccc(Br)cc3)N3C(=O)N(c4cccc(Cl)c4)C(=O)[C@@]3(C)[C@H]2C1=O >= 10%?
T

Decide: inhibition of Cc1ccc(NC(=S)NNC(=O)CSc2nnc(SCc3ccccc3Cl)s2)cc1 >= 10%?
T

Decide: inhibition of O=C(COc1ccc(Cl)cc1)N1CCN(c2cccc(C(F)(F)F)c2)CC1 >= 10%?
F

Decide: inhibition of O=C(CN1CCN(c2nc(-c3ccccc3)cs2)CC1)NCc1ccc2c(c1)OCO2 >= 10%?
T

Decide: inhibition of O=C(COC(=O)c1ccccc1)Nc1ccccc1Sc1ccccc1 >= 10%?
T

Decide: inhibition of O=C(c1ccccc1)N1CCN(c2ccc([N+](=O)[O-])c(NCc3ccco3)c2)CC1 >= 10%?
F

Decide: inhibition of Cc1ccc(S(=O)(=O)NCCSc2ccccc2)cc1[N+](=O)[O-] >= 10%?
F

Decide: inhibition of O=C(C[C@H]1C(=O)N(c2ccc(F)c(F)c2)C[C@@H]1Cc1ccccc1)Nc1ccccc1 >= 10%?
T

Decide: inhibition of COc1ccc(C(=O)Nc2ccc(C3(C#N)CCCC3)cc2)cc1OC >= 10%?
F

Decide: inhibition of COc1cc(C2CC(=O)N3CN(Cc4ccccc4)CSC3=C2C#N)ccc1OCc1ccccc1 (stereo not given) >= 10%?
T

Decide: inhibition of Cc1nnc(SCC(=O)Nn2cnnc2)s1 >= 10%?
F

Decide: inhibition of COc1ccc(-c2ccc(CN3C(CC(C)C)C(=O)N(Cc4cn(CC5CCCCC5)nn4)CCS3(=O)=O)cc2)cc1 (stereo not given) >= 10%?
T

Decide: inhibition of O=C(Cc1ccc(Cl)c(Cl)c1)Nc1ccc(SC(F)F)cc1 >= 10%?
T

Decide: inhibition of CCOc1ccccc1CNS(=O)(=O)c1cc(-c2cc(C)no2)ccc1C >= 10%?
F

Decide: inhibition of COc1ccc(Cn2cc(CN3CCS(=O)(=O)N(Cc4ccc(-c5cccc(Cl)c5)cc4)C(C)C3=O)nn2)cc1 (stereo not given) >= 10%?
T

Decide: inhibition of Cc1ccc(-c2n[nH]c(=S)n2/N=C/c2cc3c(cc2[N+](=O)[O-])OCO3)cc1 >= 10%?
F
